# credit: patent US20210380703A1

Target: human Fc (human)
Experiment: ELISA, negative control
optical density strictly under 0.3 OD means YES; at 0.3 OD or over means NO.

binder="372_D07 (antibody, V domains shown) VH: EVQLLESGGGLVQPGGSLRLSCAASGFTFSSYGMNWVRQAPGKGLEWVAGINYNGGYTSYADSVKGRFTISRDNSKNTLYLQMNSLRAEDTAVYYCARAATWHDTHLDYWGQGTLVTVSS VL: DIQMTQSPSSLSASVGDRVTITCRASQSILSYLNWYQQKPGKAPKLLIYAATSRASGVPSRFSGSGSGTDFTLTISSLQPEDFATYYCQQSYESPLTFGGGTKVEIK" class_label=NO
binder="368_C07 (antibody, V domains shown) VH: EVQLLESGGGLVQPGGSLRLSCAASGFTFSSYGMHWVRQAPGKGLEWVAGINYNSGYTSYADSVKGRFTISRDNSKNTLYLQMNSLRAEDTAVYYCARAATWHDTHLDYWGQGTLVTVSS VL: DIQMTQSPSSLSASVGDRVTITCRASQSIVSYVNWYQQKPGKAPKLVIYAATSRASGVPSRFSGSGSGTDFTLTISSLQPEDFATYYCQQSYENPLTFGGGTKVEIK" class_label=YES
binder="374_F03 (antibody, V domains shown) VH: EVQLLESGGGLVQPGGSLRLSCAASGFTFSSYGMNWVRQAPGKGLEWVASINYNGGYTSYADSVKGRFTISRDNSKNTLYLQMNSLRAEDTAVYYCARAANWHDTHLDYWGQGTLVTVSS VL: DIQMTQSPSSLSASVGDRVTITCRASQSIISYVNWYQQKPGKAPKLVIYAATSRASGVPSRFSGSGSGTDFTLTISSLQPEDFATYYCQQSYDTPLTFGGGTKVEIK" class_label=YES
binder="368_B08 (antibody, V domains shown) VH: EVQLLESGGGLVQPGGSLRLSCAASGFTFDSYGMNWVRQAPGKGLEWVSSINYNGGYTSYADSVKGRFTISRDNSKNTLYLQMNSLRAEDTAVYYCARAANWHDTHLDYWGQGTLVTVSS VL: DIQMTQSPSSLSASVGDRVTITCRASQSILTYVNWYQQKPGKAPKLVIYAATSRASGVPSRFSGSGSGTDFTLTISSLQPEDFATYYCQQSYENPLTFGGGTKVEIK" class_label=NO
binder="367_C10 (antibody, V domains shown) VH: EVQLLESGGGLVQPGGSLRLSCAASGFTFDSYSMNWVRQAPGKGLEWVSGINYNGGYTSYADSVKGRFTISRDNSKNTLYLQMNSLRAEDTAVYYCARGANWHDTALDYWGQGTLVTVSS VL: DIQMTQSPSSLSASVGDRVTITCRASQSIVSYVNWYQQKPGKAPKLLIYAVTSRASGVPSRFSGSGSGTDFTLTISSLQPEDFATYYCQQSYETPLTFGGGTKVEIK" class_label=YES

Hello, I'm reviewing records and need to know if optical density of 368_D06 (antibody, V domains shown) VH: EVQLLESGGGLVQPGGSLRLSCAASGFTFSSYGMNWVRQAPGKGLEWVSNINYNGGYTGYADSVKGRFTISRDNSKNTLYLQMNSLRAEDTAVYYCARAATWHDTHLDYWGQGTLVTVSS VL: DIQMTQSPSSLSASVGDRVTITCRASQSILSYVNWYQQKPGKAPKLVIYAATSRHSGVPSRFSGSGSGTDFTLTISSLQPEDFATYYCQQSYENPLTFGGGTKVEIK is below 0.3 OD. Could you check?
YES

Hello, I'm reviewing records and need to know if optical density of 374_D07 (antibody, V domains shown) VH: EVQLLESGGGLVQPGGSLRLSCAASGFTFDSYSMNWVRQAPGKGLEWVSGINYNSGYKSYADSVKGRFTISRDNSKNTLYLQMNSLRAEDTAVYYCARGANWHDTALDYWGQGTLVTVSS VL: DIQMTQSPSSLSASVGDRVTITCRASQSIVSYLNWYQQKPGKAPKLVIYAATSLASGVPSRFSGSGSGTDFTLTISSLQPEDFATYYCQQSYNSPLTFGGGTKVEIK is below 0.3 OD. Could you check?
YES

Hello, I'm reviewing records and need to know if optical density of 369_A04 (antibody, V domains shown) VH: EVQLLESGGGLVQPGGSLRLSCAASGFTFDSYGMHWVRQAPGKGLEWVASINYNGGYKSYADSVKGRFTISRDNSKNTLYLQMNSLRAEDTAVYYCARAATWHDTHLDYWGQGTLVTVSS VL: DIQMTQSPSSLSASVGDRVTITCRASQSIVSYVNWYQQKPGKAPKLVIYAATSLASGVPSRFSGSGSGTDFTLTISSLQPEDFATYYCQQSYDLPLTFGGGTKVEIK is below 0.3 OD. Could you check?
NO

Hello, I'm reviewing records and need to know if optical density of 373_C07 (antibody, V domains shown) VH: EVQLLESGGGLVQPGGSLRLSCAASGFTFDSYSMNWVRQAPGKGLEWVAGINYNSGYTSYADSVKGRFTISRDNSKNTLYLQMNSLRAEDTAVYYCARGANWHDTHLDYWGQGTLVTVSS VL: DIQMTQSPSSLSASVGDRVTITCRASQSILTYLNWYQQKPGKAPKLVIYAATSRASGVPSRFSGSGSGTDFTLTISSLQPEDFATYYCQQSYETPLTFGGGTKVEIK is below 0.3 OD. Could you check?
YES
